- experimental_protocol: yeast display, Sf9 membrane polyspecificity reagent, FACS + sequencing; frameworks hold sequencing errors
observed_property: polyreactivity (PSR sort gate)

In the examples that follow, each entry is paired with its recorded polyreactivity (PSR sort gate).
| construct_sequence | polyreactivity (PSR sort gate) |
| --- | --- |
| QVQLVESGGGLVQAGGSLRLSCAASGNTFAENAMGWYRQAPGKERELVDAISNGGTTNYADSVKGRFTISRDNAKNTVYLQMNSLKPEDTAVYYCNAKFGISQPGHSGLLKMDYWGQGTQVTVSS | low polyreactivity |
| QVQLVESGGGLVQAGGSLRLSCAASGFTFAFYAMGWYRQAPGKERELVAAISWDGVTTYYADSVKGRFTISRDHAKNTVYLQMNSQKPEDTAVYYCAADYPDYAGSFWPSGMYYWGQGTQVTVSS | low polyreactivity |
| QVQLVESGGGLVQAGGSLRLSCAASGSILQVYAMGWYRQAPGKERELFADINYTTGSTYYADSVKGRFTISRDNAKNTVYLQMNSLKPEDTAVYYCAKDFGFQSDSWGQGTQVTVSS | low polyreactivity |
| QVQLVESGGGLVQAGGSLRLSCAASGRTFSRNAMGWYRQAPGKERELVAAISWSGARTYYADSVKGRFTISRDNAKNTVYLQMNSLKPEDTAVYYCAARVPSWKYDYWGQGTQVTVSS | high polyreactivity |

According to the records, this sequence QVQLVESGGGLVQAGGSLRLSCAASGRIFTLYAMGWYRQAPGKERELVAGISRSGGSTYYADSVKGRFTISRDNAKNTVYFQMNSLKPEDTAVYYCNAVPIYYAWRRNKPFDYWGQGTQVTVSS displays polyreactivity (PSR sort gate) of low polyreactivity

Kindly note the recorded polyreactivity (PSR sort gate) for QVQLVESGGGLVQAGGSLRLSCAASGFTFGTYAMGCYRPAPGKERELVAAISKRGGSTYYADSVKGRFTISRDNAKNTVYLQMNSLKPEDTAVYYCAATRPYSHRDYFYWGQGTQVSVSS , which is high polyreactivity

For reference, reported polyreactivity (PSR sort gate) for QVQLVESGGGLVQAGGSLRLSCAASGRTFARNVMGSYRQAPGKERELVAAIRGSGGSTYYADSVKGRFTISRDNSKNTVYLQMNSLKPEDTAVYYCAADSSYTKRYSPTKLHFEYWGQGTQVTVSS stands at high polyreactivity

polyreactivity (PSR sort gate) measured on QVEHVESGGGLVQAGGSLRLSCAASGITFAAYAMGWYRQARGTERELVAAISTSGDSTYYADSVKGRFTISRDYAKITVYLQMNSLKPADTAVYYCNDRRYGYGVGRGLYIYDYCGQGTQVTVSS = high polyreactivity

Reported polyreactivity (PSR sort gate) of QVQLQESGDGLVQAGGSLRLSCAASGTIFTPHQMGWYRQAPGNEREFVATIDYGSSTNYADSLKGLFTISRDNAKNTMYPQMNSLKPEDTAVYYCANYYWGQGTQVTVSS : low polyreactivity

Entry under test: QVQLVESGGALVQAGGSLRLSCAASGFFIFTYAMGWYRQAPGKERELVAAISSRGGSTYYADSVKGRFTISRDNAKNTVYLQMNRLKPEDTAVYYCAAQAYGRYPYGYWGHGTQVTVSS . Its polyreactivity (PSR sort gate) was high polyreactivity

polyreactivity (PSR sort gate) reported for this sequence QVQLVESGGGLVQAGGSLRFSCAASGRTFFGYAMGWYRQAPGKERELVAAISRGGTTHYADSVKGRFTISRDNAKNTVYLQMNSLKPEDTAVYYCAADGYPYIWSGIEYDYWGQGTQVTVSS : high polyreactivity
